Test: Pharmacokinetic study after single i.p. administration, serum and brain concentrations by LC-MS/MS, non-compartmental analysis
Assay type: in vivo, Albino Swiss mice
Settings: Albino Swiss, mouse, ip; serum; mice, 5 mg/kg i.p.
value kind: MRT (h)

A = O=C1c2ccccc2C(=O)N1CC(O)CN1CCN(C(c2ccccc2)c2ccccc2)CC1 (stereo not shown)
B = O=C1c2ccccc2C(=O)N1CC(O)CN1CCN(c2cccc(C(F)(F)F)c2)CC1 (stereo not shown)
Form field 'greater MRT' accepts A or B ; which applies? Answer format: the label of the selected item.
B
(B: 2.8 h, A: 1.47 h)

---

Assay: Pharmacokinetic study after single i.p. administration, serum and brain concentrations by LC-MS/MS, non-compartmental analysis
Type: in vivo, Albino Swiss mice
Settings: serum; mice, 5 mg/kg i.p. single dose
Description: The compounds F1, F2, F3, and F4 were suspended in a 1% Tween 80 solution in sterile water for injection and given to mice i.p. at a dose of 5 mg/kg (n = 3 per time point; all mice in procedure = 96) as a single injection at a volume of 10 mL/kg. At specific time points (5; 15; 30; 60; 120; 240; 360; and 480 min after compound administration), mice were sacrificed by decapitation under isoflurane (5%) anesthesia to harvest blood and brain for assays. […]
value kind: Cmax

Take a look at these entries with their results.
> print(dat)
                                   compound         measured
1  O=C1c2ccccc2C(=O)N1CC(O)CN1CCN(c2cccc(C(F)(F)F)c2)CC1 (stereo not shown) [Compound F3]  210.25 µg/L(kg)
2  O=C1c2ccccc2C(=O)N1CC(O)CN1CCN(C(c2ccccc2)c2ccccc2)CC1 (stereo not shown) [Compound F4]  130.58 µg/L(kg)
3  COc1ccccc1N1CCN(CC(O)CN2C(=O)c3ccccc3C2=O)CC1 (stereo not shown) [Compound F2]  699.75 µg/L(kg)

Would you kindly look at the next entry?
I'd like to know its Cmax. The compound in question is O=C1c2ccccc2C(=O)N1CC(O)CN1CCN(c2ccccc2)CC1 (stereo not shown) [Compound F1]
595.75 µg/L(kg)
